System: LNCaP-Vancouver prostate cells
experiment: In vitro LNCaP Vancouver prostate cell proliferation assay in lipid reduced medium
Type: cell-based
experimental-conditions: read-out: pIC50 LNCaP_Vancouver prostate cell (converted)
Lab note: anything with IC50 below 2 µM is marked yes (1); values at 2 µM or higher are marked no (0).

[
  {
    "cpd-smiles": "O=C(C1CC1)N1CC[C@@H](CN2C(=O)C3(CCCC3)N=C2c2ccc(-c3ccc4[nH]c(=O)[nH]c4c3)cc2F)C1",
    "label-class": "no (0)"
  },
  {
    "cpd-smiles": "Cc1cc(C2=NC3(CC3)C(=O)N2C[C@@H]2CCN(C(=O)C3CC3)C2)ccc1-c1ccc2sc(C)c(C)c2c1",
    "label-class": "no (0)"
  },
  {
    "cpd-smiles": "Cc1cc(-c2ccc3c(cnn3C)c2)ccc1C1=NC2(CC2)C(=O)N1CC1CN(C(=O)C2(C)CCC2)C1",
    "label-class": "yes (1)"
  }
]

State whether 2 µM exceeds IC50 recorded for O=C(C1CC1)N1CC[C@@H](CN2C(=O)C3(CC3)N=C2c2ccc(-c3ccc4sccc4c3)s2)C1 . no (0)

Please state whether IC50 is below 2 µM for Cn1nc(Cl)c2ccc(-c3ccc(C4=NC5(CC5)C(=O)N4CC4CN(C(=O)C5CC5)C4)c(F)c3)cc21 no (0)

Just wondering, is IC50 of Cc1cc(-c2ccc3c(cnn3C)c2)ccc1C1=NC2(CC2)C(=O)N1CC1CN(C(=O)CC2CC2)C1 below 2 µM? no (0)

Source of measurements: patent US10077261B2
